Just for reference, paper PMC4505445 is where these values come from.

targetEntity: human prion protein 23–231 (PrP, unlabeled wild type) (Homo sapiens, UniProt P04156)
pIC50: −log10 of the molar value. Structures can show the parent of a compound that is named as a salt.
parameter: pIC50

// worked examples, pIC50 included
| molecule | targetEntity | pIC50 |
| --- | --- | --- |
| COc1cc(C(=O)NS(=O)(=O)c2ccccc2C)ccc1Cc1cn(C)c2ccc(NC(=O)OC3CCCC3)cc12 | human prion protein 23–231 (PrP, unlabeled wild type) (Homo sapiens, UniProt P04156) | 4.07 |
| C[C@@H]1[C@H](O)[C@@H](C)/C=C/C=C/C=C/C=C/C=C/C=C/C=C/[C@H](O[C@@H]2O[C@H](C)[C@@H](O)[C@H](N)[C@@H]2O)C[C@@H]2O[C@](O)(C[C@@H](O)C[C@@H](O)[C@H](O)CC[C@@H](O)C[C@@H](O)CC(=O)O[C@H]1C)C[C@H](O)[C@H]2C(=O)O | human prion protein 23–231 (PrP, unlabeled wild type) (Homo sapiens, UniProt P04156) | 4.05 |
| O=C1c2c(O)cccc2Cc2cccc(O)c21 | human prion protein 23–231 (PrP, unlabeled wild type) (Homo sapiens, UniProt P04156) | < 4.00 |

Problem: Requested read-out pIC50, target or system human prion protein 23–231 (PrP, unlabeled wild type) (Homo sapiens, UniProt P04156), entry CC(C)/N=c1\cc2n(-c3ccc(Cl)cc3)c3ccccc3nc-2cc1Nc1ccc(Cl)cc1
Result: < 4.00

Problem: Requested read-out pIC50, target or system human prion protein 23–231 (PrP, unlabeled wild type) (Homo sapiens, UniProt P04156), entry CC[N+](C)(CC)CCC[n+]1c(-c2ccccc2)c2cc(N)ccc2c2ccc(N)cc21 [Propidium iodide]
Result: < 4.00

Problem: Requested read-out pIC50, target or system human prion protein 23–231 (PrP, unlabeled wild type) (Homo sapiens, UniProt P04156), entry NC(CO)C(=O)NNCc1ccc(O)c(O)c1O (stereo not drawn) [Benserazide HCl]
Result: < 4.00
